Source: ChEMBL document CHEMBL1135072

molecular target: Integrin alpha-4/beta-7 (Homo sapiens, UniProt P13612+P26010); assay: Inhibition of MadCAM-Ig binding to alpha-4 beta-7 integrin
Sequence (P26010 whole entry, one chain of several): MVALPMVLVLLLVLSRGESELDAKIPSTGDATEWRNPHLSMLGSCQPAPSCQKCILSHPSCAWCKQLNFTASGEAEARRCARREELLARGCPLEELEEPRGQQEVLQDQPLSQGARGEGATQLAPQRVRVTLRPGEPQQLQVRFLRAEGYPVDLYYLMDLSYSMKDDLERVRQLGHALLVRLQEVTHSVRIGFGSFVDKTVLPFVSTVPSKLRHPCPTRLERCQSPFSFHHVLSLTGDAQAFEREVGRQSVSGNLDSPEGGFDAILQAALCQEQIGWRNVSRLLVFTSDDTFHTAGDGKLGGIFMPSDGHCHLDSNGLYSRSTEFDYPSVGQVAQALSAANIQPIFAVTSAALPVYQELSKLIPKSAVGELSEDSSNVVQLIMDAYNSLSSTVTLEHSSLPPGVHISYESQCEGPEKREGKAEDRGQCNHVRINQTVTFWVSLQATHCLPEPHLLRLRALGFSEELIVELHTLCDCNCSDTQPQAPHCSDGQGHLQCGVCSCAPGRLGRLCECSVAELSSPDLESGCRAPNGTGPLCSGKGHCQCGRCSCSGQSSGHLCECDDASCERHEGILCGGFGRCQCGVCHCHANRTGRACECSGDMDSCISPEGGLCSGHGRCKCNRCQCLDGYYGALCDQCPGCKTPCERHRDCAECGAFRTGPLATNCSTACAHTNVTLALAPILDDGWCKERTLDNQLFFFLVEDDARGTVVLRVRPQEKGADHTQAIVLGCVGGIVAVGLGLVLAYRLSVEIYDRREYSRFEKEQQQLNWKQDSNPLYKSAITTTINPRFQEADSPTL
readout_kind: IC50 (nM)

structure_as_smiles | readout_kind | recorded_measurement
O=C(O)[C@H](Cc1cscn1)NC(=O)[C@@H]1CCCN1S(=O)(=O)c1cc(Cl)cc(Cl)c1 | IC50 | 2350
C[C@@]1(C(=O)N[C@@H](Cc2ccccc2)C(=O)O)CCCN1S(=O)(=O)c1cc(Cl)cc(Cl)c1 | IC50 | 3550
O=C(O)[C@H](Cc1cccnc1)NC(=O)[C@@H]1CCCN1S(=O)(=O)c1cc(Cl)cc(Cl)c1 | IC50 | 2100
O=C(O)[C@H](Cc1cccs1)NC(=O)[C@@H]1CCCN1S(=O)(=O)c1cc(Cl)cc(Cl)c1 | IC50 | 2850

###

assay: Volume of distribution was reported in Sprague-Dawley rat; conditions: in vivo
readout_kind: Vd (L/kg)

structure_as_smiles | readout_kind | result_unit | recorded_measurement
COc1ccc(C[C@H](NC(=O)[C@]2(C)CCCN2S(=O)(=O)c2cc(Cl)cc(Cl)c2)C(=O)O)cc1 | Vd | L/kg | 1.4
C[C@@]1(C(=O)N[C@@H](Cc2ccc(OC(F)(F)F)cc2)C(=O)O)CCCN1S(=O)(=O)c1cc(Cl)cc(Cl)c1 | Vd | L/kg | 1.4
C[C@@]1(C(=O)N[C@@H](Cc2ccc(F)cc2)C(=O)O)CCCN1S(=O)(=O)c1cc(Cl)cc(Cl)c1 | Vd | L/kg | 1.2

###

molecular target: Integrin alpha-4/beta-7 (Homo sapiens) (UniProt P13612+P26010); experiment: Inhibition of MadCAM-Ig binding to alpha-4 beta-7 integrin at 0.1 uM; format: protein-complex assay
readout_kind: inhibition

Check out these entries, answers already filled in.
structure_as_smiles | inhibition
C[C@@]1(C(=O)N[C@@H](Cc2ccc(Cl)cc2)C(=O)O)CCCN1S(=O)(=O)c1cc(Cl)cc(Cl)c1 | < 16%
CCc1ccc(C[C@H](NC(=O)[C@]2(C)CCCN2S(=O)(=O)c2cc(Cl)cc(Cl)c2)C(=O)O)cc1 | 2%
C[C@@]1(C(=O)N[C@@H](Cc2cccc(F)c2)C(=O)O)CCCN1S(=O)(=O)c1cc(Cl)cc(Cl)c1 | < 5%
C[C@@]1(C(=O)N[C@@H](Cc2ccccc2Cl)C(=O)O)CCCN1S(=O)(=O)c1cc(Cl)cc(Cl)c1 | < 16%
C[C@@]1(C(=O)N[C@@H](Cc2ccncc2)C(=O)O)CCCN1S(=O)(=O)c1cc(Cl)cc(Cl)c1 | 13%
C[C@@]1(C(=O)N[C@@H](Cc2ccc(F)cc2)C(=O)O)CCCN1S(=O)(=O)c1cc(Cl)cc(Cl)c1 | < 5%

Then this compound:
Exercise: Item `C[C@@]1(C(=O)N[C@@H](Cc2cccc(Cl)c2)C(=O)O)CCCN1S(=O)(=O)c1cc(Cl)cc(Cl)c1` has what recorded inhibition?
Solution: < 16%

###

target: Integrin alpha-4/beta-1 (Homo sapiens, UniProt P05556+P13612); experiment: Inhibitory activity against very late antigen-4 (VLA-4) using VCAM-Ig ligand.
Sequence (P05556 whole entry): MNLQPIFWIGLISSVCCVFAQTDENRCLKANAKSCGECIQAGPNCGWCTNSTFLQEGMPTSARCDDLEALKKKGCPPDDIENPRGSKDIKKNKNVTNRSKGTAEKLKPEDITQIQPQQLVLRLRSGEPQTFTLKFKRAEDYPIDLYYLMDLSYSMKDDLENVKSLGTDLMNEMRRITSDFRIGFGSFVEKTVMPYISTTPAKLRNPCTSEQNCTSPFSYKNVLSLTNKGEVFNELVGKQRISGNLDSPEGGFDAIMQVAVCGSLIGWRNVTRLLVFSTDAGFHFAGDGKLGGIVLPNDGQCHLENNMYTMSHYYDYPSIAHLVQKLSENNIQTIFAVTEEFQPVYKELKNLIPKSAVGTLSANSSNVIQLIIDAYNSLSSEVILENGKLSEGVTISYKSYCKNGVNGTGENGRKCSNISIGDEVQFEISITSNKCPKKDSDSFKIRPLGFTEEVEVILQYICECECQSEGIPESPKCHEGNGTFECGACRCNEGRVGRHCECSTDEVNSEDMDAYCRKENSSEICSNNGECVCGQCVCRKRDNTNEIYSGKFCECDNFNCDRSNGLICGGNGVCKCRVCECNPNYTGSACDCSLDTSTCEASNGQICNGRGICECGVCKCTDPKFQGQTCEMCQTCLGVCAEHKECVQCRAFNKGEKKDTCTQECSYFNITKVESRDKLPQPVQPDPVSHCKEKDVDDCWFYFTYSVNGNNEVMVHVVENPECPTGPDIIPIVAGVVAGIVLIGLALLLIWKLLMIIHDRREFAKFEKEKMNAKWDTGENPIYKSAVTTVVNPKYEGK
Sequence (P13612 whole entry): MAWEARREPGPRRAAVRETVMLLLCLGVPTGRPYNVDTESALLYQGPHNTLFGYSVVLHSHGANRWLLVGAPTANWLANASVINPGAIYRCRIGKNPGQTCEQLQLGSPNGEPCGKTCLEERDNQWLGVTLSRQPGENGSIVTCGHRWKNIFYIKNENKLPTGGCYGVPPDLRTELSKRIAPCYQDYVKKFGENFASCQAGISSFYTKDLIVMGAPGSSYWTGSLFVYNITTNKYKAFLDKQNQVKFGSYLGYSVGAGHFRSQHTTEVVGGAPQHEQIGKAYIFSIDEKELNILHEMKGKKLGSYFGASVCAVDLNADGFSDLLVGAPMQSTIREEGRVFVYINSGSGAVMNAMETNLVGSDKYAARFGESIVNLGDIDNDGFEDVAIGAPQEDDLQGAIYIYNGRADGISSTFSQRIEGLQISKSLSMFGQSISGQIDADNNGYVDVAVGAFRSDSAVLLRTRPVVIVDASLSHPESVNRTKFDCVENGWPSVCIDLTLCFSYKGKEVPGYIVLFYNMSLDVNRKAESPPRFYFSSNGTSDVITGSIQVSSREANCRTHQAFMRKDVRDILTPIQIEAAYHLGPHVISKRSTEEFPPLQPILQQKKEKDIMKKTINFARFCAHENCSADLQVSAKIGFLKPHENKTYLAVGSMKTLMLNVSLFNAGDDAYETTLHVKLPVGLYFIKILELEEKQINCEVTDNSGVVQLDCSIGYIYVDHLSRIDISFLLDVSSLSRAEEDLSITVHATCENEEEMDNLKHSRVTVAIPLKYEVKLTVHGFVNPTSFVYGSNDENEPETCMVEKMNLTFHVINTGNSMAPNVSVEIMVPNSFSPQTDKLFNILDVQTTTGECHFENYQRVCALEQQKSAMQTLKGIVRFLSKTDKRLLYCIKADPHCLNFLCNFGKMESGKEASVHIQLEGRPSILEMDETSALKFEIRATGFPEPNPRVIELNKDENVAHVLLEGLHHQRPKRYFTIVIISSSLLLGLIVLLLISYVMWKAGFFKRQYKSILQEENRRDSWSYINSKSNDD
pIC50: −log10 of the molar value.
readout_kind: pIC50

structure_as_smiles | readout_kind | recorded_measurement
C[C@@]1(C(=O)N[C@@H](Cc2ccccc2F)C(=O)O)CCCN1S(=O)(=O)c1cc(Cl)cc(Cl)c1 | pIC50 | 8.77
O=C(O)[C@H](Cc1ccccc1F)NC(=O)[C@@H]1CCCN1S(=O)(=O)c1cc(Cl)cc(Cl)c1 | pIC50 | 8.89
N#Cc1ccc(C[C@H](NC(=O)[C@@H]2CCCN2S(=O)(=O)c2cc(Cl)cc(Cl)c2)C(=O)O)cc1 | pIC50 | 9.10
C[C@@]1(C(=O)N[C@@H](Cc2cccc(Cl)c2)C(=O)O)CCCN1S(=O)(=O)c1cc(Cl)cc(Cl)c1 | pIC50 | 8.77
C[C@@]1(C(=O)N[C@@H](Cc2ccc(C#N)cc2)C(=O)O)CCCN1S(=O)(=O)c1cc(Cl)cc(Cl)c1 | pIC50 | 8.80

a: CCc1ccc(C[C@H](NC(=O)[C@@H]2CCCN2S(=O)(=O)c2cc(Cl)cc(Cl)c2)C(=O)O)cc1
b: CCc1ccc(C[C@H](NC(=O)[C@]2(C)CCCN2S(=O)(=O)c2cc(Cl)cc(Cl)c2)C(=O)O)cc1
c: O=C(O)[C@H](Cc1ccc(Br)cc1)NC(=O)[C@@H]1CCCN1S(=O)(=O)c1cc(Cl)cc(Cl)c1
Exercise: Order the 3 compounds from highest to lowest pIC50. Could you list the labels in the order requested?
Solution: a, c, b

###

assay: in vivo; conditions: Sprague-Dawley, rat, plasma
readout_kind: half-life (min)

structure_as_smiles | result_unit | half-life
C[C@@]1(C(=O)N[C@@H](Cc2ccc(OC(F)(F)F)cc2)C(=O)O)CCCN1S(=O)(=O)c1cc(Cl)cc(Cl)c1 | min | 54

a: COc1ccc(C[C@H](NC(=O)[C@]2(C)CCCN2S(=O)(=O)c2cc(Cl)cc(Cl)c2)C(=O)O)cc1
b: C[C@@]1(C(=O)N[C@@H](Cc2ccc(F)cc2)C(=O)O)CCCN1S(=O)(=O)c1cc(Cl)cc(Cl)c1
Exercise: Choose between a and b : whose measured half-life value is numerically larger? Answer with the label corresponding to your selection.
Solution: b

###

assay: Plasma clearance was reported in Sprague-Dawley rat
readout_kind: clearance (mL/min/kg)

structure_as_smiles | result_unit | clearance
COc1ccc(C[C@H](NC(=O)[C@]2(C)CCCN2S(=O)(=O)c2cc(Cl)cc(Cl)c2)C(=O)O)cc1 | mL/min/kg | 47
C[C@@]1(C(=O)N[C@@H](Cc2ccc(F)cc2)C(=O)O)CCCN1S(=O)(=O)c1cc(Cl)cc(Cl)c1 | mL/min/kg | 44
C[C@@]1(C(=O)N[C@@H](Cc2ccc(OC(F)(F)F)cc2)C(=O)O)CCCN1S(=O)(=O)c1cc(Cl)cc(Cl)c1 | mL/min/kg | 36

###

biological target: Integrin alpha-4/beta-1 (Homo sapiens, UniProt P05556+P13612); experiment: Inhibitory activity against very late antigen-4 (VLA-4) using VCAM-Ig ligand.
readout_kind: IC50 (nM)

The cases that follow already have their IC50 on record.
structure_as_smiles | result_unit | IC50
C[C@@]1(C(=O)N[C@@H](Cc2ccc(OC(F)(F)F)cc2)C(=O)O)CCCN1S(=O)(=O)c1cc(Cl)cc(Cl)c1 | nM | 3.8
CC(C)(C)Oc1ccc(C[C@H](NC(=O)[C@@H]2CCCN2S(=O)(=O)c2cc(Cl)cc(Cl)c2)C(=O)O)cc1 | nM | 0.22

I: O=C(O)[C@H](Cc1ccc(I)cc1)NC(=O)[C@@H]1CCCN1S(=O)(=O)c1cc(Cl)cc(Cl)c1
II: C[C@@]1(C(=O)N[C@@H](Cc2ccncc2)C(=O)O)CCCN1S(=O)(=O)c1cc(Cl)cc(Cl)c1
Exercise: Hey, which is lower on measured IC50, I or II ? Response format: the label of the selected entry.
Solution: I

###

target: Integrin alpha-4/beta-1 (Homo sapiens, UniProt P05556+P13612); assay: Inhibitory activity against very late antigen-4 (VLA-4) using VCAM-Ig ligand.
pIC50: −log10 of the molar value.
readout_kind: pIC50

Here are 3 molecules together with their reported answers.
structure_as_smiles | measured_target | pIC50
C[C@@]1(C(=O)N[C@H](Cc2ccccc2)C(=O)O)CCCN1S(=O)(=O)c1cc(Cl)cc(Cl)c1 | Integrin alpha-4/beta-1 (Homo sapiens, UniProt P05556+P13612) | 6.82
C[C@@]1(C(=O)N[C@@H](Cc2ccc(C(F)(F)F)cc2)C(=O)O)CCCN1S(=O)(=O)c1cc(Cl)cc(Cl)c1 | Integrin alpha-4/beta-1 (Homo sapiens, UniProt P05556+P13612) | 8.41
C[C@@]1(C(=O)N[C@@H](Cc2ccc(I)cc2)C(=O)O)CCCN1S(=O)(=O)c1cc(Cl)cc(Cl)c1 | Integrin alpha-4/beta-1 (Homo sapiens, UniProt P05556+P13612) | 8.32

P: O=C(O)[C@H](Cc1cccc(C(F)(F)F)c1)NC(=O)[C@@H]1CCCN1S(=O)(=O)c1cc(Cl)cc(Cl)c1
Q: O=C(O)[C@H](Cc1ccc(F)cc1)NC(=O)[C@@H]1CCCN1S(=O)(=O)c1cc(Cl)cc(Cl)c1
Exercise: Looking at P and Q , which one comes out lower in pIC50 terms? Select an item and report its label.
Solution: P

###

biological target: Integrin alpha-4/beta-1 (Homo sapiens, UniProt P05556+P13612); assay: Inhibitory activity against very late antigen-4 (VLA-4) using VCAM-Ig ligand.
pIC50: −log10 of the molar value.
readout_kind: pIC50

Previously resolved entries follow.
structure_as_smiles | pIC50
O=C(O)[C@H](Cc1ccncc1)NC(=O)[C@@H]1CCCN1S(=O)(=O)c1cc(Cl)cc(Cl)c1 | 9.17
COc1ccc(C[C@H](NC(=O)[C@]2(C)CCCN2S(=O)(=O)c2cc(Cl)cc(Cl)c2)C(=O)O)cc1 | 9.23
O=C(O)[C@H](Cc1ccc(-c2ccccc2)cc1)NC(=O)[C@@H]1CCCN1S(=O)(=O)c1cc(Cl)cc(Cl)c1 | 9.19
O=C(O)[C@H](Cc1cscn1)NC(=O)[C@@H]1CCCN1S(=O)(=O)c1cc(Cl)cc(Cl)c1 | 9.14
O=C(O)[C@H](Cc1ccc(Cl)cc1)NC(=O)[C@@H]1CCCN1S(=O)(=O)c1cc(Cl)cc(Cl)c1 | 9.07

1: C[C@@]1(C(=O)N[C@@H](Cc2ccc(Cl)cc2)C(=O)O)CCCN1S(=O)(=O)c1cc(Cl)cc(Cl)c1
2: C[C@@]1(C(=O)N[C@@H](Cc2cccc(F)c2)C(=O)O)CCCN1S(=O)(=O)c1cc(Cl)cc(Cl)c1
3: O=C(O)[C@H](Cc1cccc(Cl)c1)NC(=O)[C@@H]1CCCN1S(=O)(=O)c1cc(Cl)cc(Cl)c1
Exercise: # desc sort on pIC50 across 3 molecules Reply with the labels, ordered as the question asks.
Solution: 2, 1, 3
